# experimental.target: T1, Human CD3eg linker (human)
# T1 construct: single-chain construct; also called recombinant human CD3
# T1 chain: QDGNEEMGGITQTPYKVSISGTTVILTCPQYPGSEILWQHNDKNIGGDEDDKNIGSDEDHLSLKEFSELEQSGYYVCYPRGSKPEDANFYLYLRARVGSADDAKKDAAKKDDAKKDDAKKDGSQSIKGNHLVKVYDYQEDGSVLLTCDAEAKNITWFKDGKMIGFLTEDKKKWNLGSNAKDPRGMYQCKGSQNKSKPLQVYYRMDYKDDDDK
# experimental.protocol: SPR, vs unmutated H183/L072
value.kind: fold change of affinity (fold)
Kindly provide the numeric value in fold only, without the unit symbol.

Req: Given dBBDu183H S62Y/dBBDu072L (antibody, name in Kabat numbering, V domains shown) VH: QVQLVESGGGLVQPGRSLRLSCAASGFTFSNAWMHWVRQAPGKGLEWVAQIKDKGNAYAAYYAPYVKGRFTISRDDSKNSIYLQMNSLKTEDTAVYYCHYVHYASASTVLPAFGVDAWGQGTTVTVSS VL: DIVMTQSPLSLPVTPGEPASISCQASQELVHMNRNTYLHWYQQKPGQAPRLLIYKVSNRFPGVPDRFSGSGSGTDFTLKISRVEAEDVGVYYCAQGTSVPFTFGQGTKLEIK , state its recorded fold change of affinity.
Resp: 1.5

Req: What would you report for dBBDu183H H96E/dBBDu072L (antibody, name in Kabat numbering, V domains shown) VH: QVQLVESGGGLVQPGRSLRLSCAASGFTFSNAWMHWVRQAPGKGLEWVAQIKDKGNAYAAYYAPSVKGRFTISRDDSKNSIYLQMNSLKTEDTAVYYCHYVEYASASTVLPAFGVDAWGQGTTVTVSS VL: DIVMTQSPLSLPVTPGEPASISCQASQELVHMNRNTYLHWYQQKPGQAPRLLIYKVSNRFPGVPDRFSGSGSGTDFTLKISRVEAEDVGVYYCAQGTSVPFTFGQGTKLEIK ?
Resp: 0

Req: What would you report for dBBDu183H V95E/dBBDu072L (antibody, name in Kabat numbering, V domains shown) VH: QVQLVESGGGLVQPGRSLRLSCAASGFTFSNAWMHWVRQAPGKGLEWVAQIKDKGNAYAAYYAPSVKGRFTISRDDSKNSIYLQMNSLKTEDTAVYYCHYEHYASASTVLPAFGVDAWGQGTTVTVSS VL: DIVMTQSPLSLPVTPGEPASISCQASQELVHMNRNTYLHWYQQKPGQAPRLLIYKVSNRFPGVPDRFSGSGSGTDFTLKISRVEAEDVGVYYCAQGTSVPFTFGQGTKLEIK ?
Resp: 0

Req: What would you report for dBBDu183H V95W/dBBDu072L (antibody, name in Kabat numbering, V domains shown) VH: QVQLVESGGGLVQPGRSLRLSCAASGFTFSNAWMHWVRQAPGKGLEWVAQIKDKGNAYAAYYAPSVKGRFTISRDDSKNSIYLQMNSLKTEDTAVYYCHYWHYASASTVLPAFGVDAWGQGTTVTVSS VL: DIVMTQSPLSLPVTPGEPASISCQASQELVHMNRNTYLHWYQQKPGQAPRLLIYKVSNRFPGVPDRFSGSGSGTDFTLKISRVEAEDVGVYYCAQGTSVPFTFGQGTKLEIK ?
Resp: 0

Req: What would you report for dBBDu183H P61T/dBBDu072L (antibody, name in Kabat numbering, V domains shown) VH: QVQLVESGGGLVQPGRSLRLSCAASGFTFSNAWMHWVRQAPGKGLEWVAQIKDKGNAYAAYYATSVKGRFTISRDDSKNSIYLQMNSLKTEDTAVYYCHYVHYASASTVLPAFGVDAWGQGTTVTVSS VL: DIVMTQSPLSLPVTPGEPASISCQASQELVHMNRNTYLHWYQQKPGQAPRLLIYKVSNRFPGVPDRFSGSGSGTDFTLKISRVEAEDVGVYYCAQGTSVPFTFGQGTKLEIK ?
Resp: 1

Req: What would you report for dBBDu183H P61K/dBBDu072L (antibody, name in Kabat numbering, V domains shown) VH: QVQLVESGGGLVQPGRSLRLSCAASGFTFSNAWMHWVRQAPGKGLEWVAQIKDKGNAYAAYYAKSVKGRFTISRDDSKNSIYLQMNSLKTEDTAVYYCHYVHYASASTVLPAFGVDAWGQGTTVTVSS VL: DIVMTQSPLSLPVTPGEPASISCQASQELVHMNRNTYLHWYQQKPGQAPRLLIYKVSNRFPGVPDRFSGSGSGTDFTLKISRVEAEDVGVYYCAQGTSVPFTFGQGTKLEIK ?
Resp: 1.7

Req: What would you report for dBBDu183H A98Y/dBBDu072L (antibody, name in Kabat numbering, V domains shown) VH: QVQLVESGGGLVQPGRSLRLSCAASGFTFSNAWMHWVRQAPGKGLEWVAQIKDKGNAYAAYYAPSVKGRFTISRDDSKNSIYLQMNSLKTEDTAVYYCHYVHYYSASTVLPAFGVDAWGQGTTVTVSS VL: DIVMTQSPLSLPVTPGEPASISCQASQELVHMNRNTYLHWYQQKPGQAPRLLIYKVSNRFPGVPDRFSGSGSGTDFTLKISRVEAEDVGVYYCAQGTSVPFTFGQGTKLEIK ?
Resp: 25.1

Req: What would you report for dBBDu183H L100dD/dBBDu072L (antibody, name in Kabat numbering, V domains shown) VH: QVQLVESGGGLVQPGRSLRLSCAASGFTFSNAWMHWVRQAPGKGLEWVAQIKDKGNAYAAYYAPSVKGRFTISRDDSKNSIYLQMNSLKTEDTAVYYCHYVHYASASTVDPAFGVDAWGQGTTVTVSS VL: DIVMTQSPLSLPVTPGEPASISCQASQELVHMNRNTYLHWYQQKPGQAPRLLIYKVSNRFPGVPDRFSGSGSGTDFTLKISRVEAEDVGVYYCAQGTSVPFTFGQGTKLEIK ?
Resp: 1

Req: What would you report for dBBDu183H A102Q/dBBDu072L (antibody, name in Kabat numbering, V domains shown) VH: QVQLVESGGGLVQPGRSLRLSCAASGFTFSNAWMHWVRQAPGKGLEWVAQIKDKGNAYAAYYAPSVKGRFTISRDDSKNSIYLQMNSLKTEDTAVYYCHYVHYASASTVLPAFGVDQWGQGTTVTVSS VL: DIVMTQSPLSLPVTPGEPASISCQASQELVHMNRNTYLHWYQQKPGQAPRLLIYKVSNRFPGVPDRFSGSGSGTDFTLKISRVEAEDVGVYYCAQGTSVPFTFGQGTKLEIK ?
Resp: 1.3

Req: What would you report for dBBDu183H P100eD/dBBDu072L (antibody, name in Kabat numbering, V domains shown) VH: QVQLVESGGGLVQPGRSLRLSCAASGFTFSNAWMHWVRQAPGKGLEWVAQIKDKGNAYAAYYAPSVKGRFTISRDDSKNSIYLQMNSLKTEDTAVYYCHYVHYASASTVLDAFGVDAWGQGTTVTVSS VL: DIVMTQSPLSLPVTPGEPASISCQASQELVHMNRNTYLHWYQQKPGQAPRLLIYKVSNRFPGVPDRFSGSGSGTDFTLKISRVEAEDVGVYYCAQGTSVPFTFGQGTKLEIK ?
Resp: 0.7
